Target: Human recombinant MMP-13 (Homo sapiens)
Construct: made in house; host or cells: baculovirus / insect cells
Assay: In vitro MMP inhibition, IC50 determination (fluorogenic substrate I)
Format: biochemical
Details: substrate (I) 4 μM, room temperature; values not in parenthesis
Structures can show the parent of a compound that is named as a salt.
Measure: IC50 (nM)

Known IC50 results, listed for orientation:
Molecule: COc1ccc(-c2coc(CCCOc3ccc(S(=O)(=O)C4(C(=O)NO)CCOCC4)cc3)n2)cc1 [Example 30]
Measurement Units: nM
IC50: 1.3
//
Molecule: COCCN1CCC(C(=O)NO)(S(=O)(=O)c2ccc(OCCCSc3nc4ccccc4o3)cc2)CC1 [Example 43, Hydrochloride]
Measurement Units: nM
IC50: 1
//
Molecule: NC(=O)c1cccc(OCCOc2ccc(S(=O)(=O)C3(C(=O)NO)CCOCC3)cc2)c1 [Example 54]
Measurement Units: nM
IC50: 10.5

(1) CCN1CCC(C(=O)NO)(S(=O)(=O)c2ccc(OCCCc3nc(-c4ccc(OC(F)(F)F)cc4)no3)cc2)CC1 [Example 41, Hydrochloride]
(2) O=C1c2ccccc2C(=O)N1CCCCc1ccc(S(=O)(=O)C2(C(=O)NO)CCOCC2)cc1 [Example 35]
(3) COCCN1CCC(C(=O)NO)(S(=O)(=O)c2ccc(OCCCc3cc(-c4ccc(F)cc4F)cs3)cc2)CC1 [Example 47, Hydrochloride]
**Query** Arrange these molecules by their IC50, starting with the largest number. List labels; respect the requested ordering.
**Result** 2, 1, 3

Each recorded value in this set is attributed to patent US20040024024A1.
